B1: TRIM63 (parent)
chain: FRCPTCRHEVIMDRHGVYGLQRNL

Variants of: B1
protocolNotes: protein stability index of a GFP-peptide fusion (GPS, HEK-293T) (PSI 1-6); higher = more stable;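 further: lentivirally expressed fusions sorted by FACS into six bins by GFP to DsRed ratio, PSI derived from sequencing read proportions per bin multiplied by bin number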
conditionInfo: c terminus: a fixed tail appended
observedProperty: protein stability index

Here are 3 variants together with their reported answers.
1) V17N ... 2.28
2) Q21F ... 1.27
3) R22A ... 2.29

Per the records, this variant ( H15F ) has protein stability index equal to 1.67

For record L24S the listed protein stability index is 2.47

Entry Q21N — recorded protein stability index = 2.87

Field protein stability index (entry P4N ) reads 3.06

Please fill in: protein stability index reported for Q21C = 2.63
